- System: Staphylococcus aureus
- method: In vitro antibacterial activity (MIC), two-fold dilution in microtiter system
- Type: cell-based
- measurement.parameters: 5 tested strains, clinical isolates, Penassay broth, 18-24 h at 37° C.
reported.property: M.I.C.

Qu. Give the measured M.I.C. of "CC(=O)N[C@H]1[C@H](O[C@@H]2c3ccc(c(Cl)c3)Oc3cc4cc(c3O[C@@H]3O[C@H](CO)[C@@H](O)[C@H](O)[C@H]3NC(=O)CCCCCCC(C)C)Oc3ccc(cc3Cl)C[C@H]3NC(=O)[C@H](N)c5ccc(O)c(c5)Oc5cc(O)cc(c5)[C@H](NC3=O)C(=O)N[C@H]4C(=O)N[C@H]3C(=O)N[C@@H]2C(=O)N[C@H](C(=O)O)c2cc(O)cc(O[C@H]4O[C@H](CO)[C@@H](O)[C@H](O)[C@@H]4O)c2-c2cc3ccc2O)O[C@H](CO)[C@@H](O)[C@@H]1O" .
Ans. 0.8 to 1.6 µg/mL

----------
Could you please report measured M.I.C. for the items listed next?
- Tested on: Streptococcus pneumoniae
- method: In vitro antibacterial activity (MIC), two-fold dilution in microtiter system
- Assay type: cell-based
- measurement.parameters: 6 tested strains, clinical isolates, Todd-Hewitt broth, 18-24 h at 37° C.

{"molecule": "CCC(C)CCCCCCC(=O)N[C@H]1[C@H](Oc2c3cc4cc2Oc2ccc(cc2Cl)[C@@H](O[C@@H]2O[C@H](CO)[C@@H](O)[C@H](O)[C@H]2NC(C)=O)[C@@H]2NC(=O)[C@H](NC(=O)[C@@H]4NC(=O)[C@H]4NC(=O)[C@@H](Cc5ccc(c(Cl)c5)O3)NC(=O)[C@H](N)c3ccc(O)c(c3)Oc3cc(O)cc4c3)c3ccc(O)c(c3)-c3c(O[C@H]4O[C@H](CO)[C@@H](O)[C@H](O)[C@@H]4O)cc(O)cc3[C@@H](C(=O)O)NC2=O)O[C@H](CO)[C@@H](O)[C@@H]1O (some centres unmarked) [Teichomycin A2 factor 4]", "M.I.C.": "0.05 to 0.1 µg/mL"}

Qu. Which value of M.I.C. has been reported for CCCCCCCCCC(=O)N[C@H]1[C@H](Oc2c3cc4cc2Oc2ccc(cc2Cl)[C@@H](O[C@@H]2O[C@H](CO)[C@@H](O)[C@H](O)[C@H]2NC(C)=O)[C@@H]2NC(=O)[C@H](NC(=O)[C@@H]4NC(=O)[C@H]4NC(=O)[C@H](Cc5ccc(c(Cl)c5)O3)NC(=O)[C@H](N)c3ccc(O)c(c3)Oc3cc(O)cc4c3)c3ccc(O)c(c3)-c3c(O[C@H]4O[C@H](CO)[C@@H](O)[C@H](O)[C@@H]4O)cc(O)cc3[C@@H](C(=O)O)NC2=O)O[C@H](CO)[C@@H](O)[C@@H]1O [Teichomycin A2 factor 3] in the records?
Ans. 0.05 to 0.1 µg/mL

----------
- Test system: Streptococcus mitis
- method: In vitro antibacterial activity (MIC), two-fold dilution in microtiter system
- Type: cell-based
- measurement.parameters: 1 tested strain, clinical isolate, Todd-Hewitt broth, 18-24 h at 37° C.
reported.property: M.I.C. (µg/mL)
Numbers only, in µg/mL.

{"entry.smiles": "CCCCCCCCCC(=O)N[C@H]1[C@H](Oc2c3cc4cc2Oc2ccc(cc2Cl)[C@@H](O[C@@H]2O[C@H](CO)[C@@H](O)[C@H](O)[C@H]2NC(C)=O)[C@@H]2NC(=O)[C@H](NC(=O)[C@@H]4NC(=O)[C@H]4NC(=O)[C@H](Cc5ccc(c(Cl)c5)O3)NC(=O)[C@H](N)c3ccc(O)c(c3)Oc3cc(O)cc4c3)c3ccc(O)c(c3)-c3c(O[C@H]4O[C@H](CO)[C@@H](O)[C@H](O)[C@@H]4O)cc(O)cc3[C@@H](C(=O)O)NC2=O)O[C@H](CO)[C@@H](O)[C@@H]1O", "M.I.C. / µg/mL": 0.0125}
{"entry.smiles": "CCCCC/C=C\\CCC(=O)N[C@H]1[C@H](Oc2c3cc4cc2Oc2ccc(cc2Cl)[C@@H](O[C@@H]2O[C@H](CO)[C@@H](O)[C@H](O)[C@H]2NC(C)=O)[C@@H]2NC(=O)[C@H](NC(=O)[C@@H]4NC(=O)[C@H]4NC(=O)[C@@H](Cc5ccc(c(Cl)c5)O3)NC(=O)[C@H](N)c3ccc(O)c(c3)Oc3cc(O)cc4c3)c3ccc(O)c(c3)-c3c(O[C@H]4O[C@H](CO)[C@@H](O)[C@H](O)[C@@H]4O)cc(O)cc3[C@@H](C(=O)O)NC2=O)O[C@H](CO)[C@@H](O)[C@@H]1O", "M.I.C. / µg/mL": 0.025}

Okay, now this molecule:
Qu. Record lookup: for Streptococcus mitis, what M.I.C. belongs to "CC(=O)N[C@H]1[C@H](O[C@@H]2c3ccc(c(Cl)c3)Oc3cc4cc(c3O[C@@H]3O[C@H](CO)[C@@H](O)[C@H](O)[C@H]3NC(=O)CCCCCCC(C)C)Oc3ccc(cc3Cl)C[C@H]3NC(=O)[C@H](N)c5ccc(O)c(c5)Oc5cc(O)cc(c5)[C@H](NC3=O)C(=O)N[C@H]4C(=O)N[C@H]3C(=O)N[C@@H]2C(=O)N[C@H](C(=O)O)c2cc(O)cc(O[C@H]4O[C@H](CO)[C@@H](O)[C@H](O)[C@@H]4O)c2-c2cc3ccc2O)O[C@H](CO)[C@@H](O)[C@@H]1O" ?
Ans. 0.025

----------
- method: Solubility
- Format: physicochemical
- measurement.parameters: methylcellosolve, glycerol
reported.property: solubility in methylcellosolve and glycerol

{"entry.smiles": "CCCCCCCCCC(=O)N[C@H]1[C@H](Oc2c3cc4cc2Oc2ccc(cc2Cl)[C@@H](O[C@@H]2O[C@H](CO)[C@@H](O)[C@H](O)[C@H]2NC(C)=O)[C@@H]2NC(=O)[C@H](NC(=O)[C@@H]4NC(=O)[C@H]4NC(=O)[C@H](Cc5ccc(c(Cl)c5)O3)NC(=O)[C@H](N)c3ccc(O)c(c3)Oc3cc(O)cc4c3)c3ccc(O)c(c3)-c3c(O[C@H]4O[C@H](CO)[C@@H](O)[C@H](O)[C@@H]4O)cc(O)cc3[C@@H](C(=O)O)NC2=O)O[C@H](CO)[C@@H](O)[C@@H]1O", "test.result": "slightly soluble"}
{"entry.smiles": "CCCCC/C=C\\CCC(=O)N[C@H]1[C@H](Oc2c3cc4cc2Oc2ccc(cc2Cl)[C@@H](O[C@@H]2O[C@H](CO)[C@@H](O)[C@H](O)[C@H]2NC(C)=O)[C@@H]2NC(=O)[C@H](NC(=O)[C@@H]4NC(=O)[C@H]4NC(=O)[C@@H](Cc5ccc(c(Cl)c5)O3)NC(=O)[C@H](N)c3ccc(O)c(c3)Oc3cc(O)cc4c3)c3ccc(O)c(c3)-c3c(O[C@H]4O[C@H](CO)[C@@H](O)[C@H](O)[C@@H]4O)cc(O)cc3[C@@H](C(=O)O)NC2=O)O[C@H](CO)[C@@H](O)[C@@H]1O", "test.result": "slightly soluble"}

----------
- method: Solubility
- Format: physicochemical
- measurement.parameters: methylcellosolve, glycerol
reported.property: solubility in methylcellosolve and glycerol

{"compound": "CC(=O)N[C@H]1[C@H](O[C@@H]2c3ccc(c(Cl)c3)Oc3cc4cc(c3O[C@@H]3O[C@H](CO)[C@@H](O)[C@H](O)[C@H]3NC(=O)CCCCCCC(C)C)Oc3ccc(cc3Cl)C[C@H]3NC(=O)[C@H](N)c5ccc(O)c(c5)Oc5cc(O)cc(c5)[C@H](NC3=O)C(=O)N[C@H]4C(=O)N[C@H]3C(=O)N[C@@H]2C(=O)N[C@H](C(=O)O)c2cc(O)cc(O[C@H]4O[C@H](CO)[C@@H](O)[C@H](O)[C@@H]4O)c2-c2cc3ccc2O)O[C@H](CO)[C@@H](O)[C@@H]1O", "test.result": "slightly soluble"}
{"compound": "CCC(C)CCCCCCC(=O)N[C@H]1[C@H](Oc2c3cc4cc2Oc2ccc(cc2Cl)[C@@H](O[C@@H]2O[C@H](CO)[C@@H](O)[C@H](O)[C@H]2NC(C)=O)[C@@H]2NC(=O)[C@H](NC(=O)[C@@H]4NC(=O)[C@H]4NC(=O)[C@@H](Cc5ccc(c(Cl)c5)O3)NC(=O)[C@H](N)c3ccc(O)c(c3)Oc3cc(O)cc4c3)c3ccc(O)c(c3)-c3c(O[C@H]4O[C@H](CO)[C@@H](O)[C@H](O)[C@@H]4O)cc(O)cc3[C@@H](C(=O)O)NC2=O)O[C@H](CO)[C@@H](O)[C@@H]1O (some centres unmarked)", "test.result": "slightly soluble"}

----------
- System: Staphylococcus aureus
- method: In vitro antibacterial activity (MIC), two-fold dilution in microtiter system
- Type: cell-based
- measurement.parameters: 5 tested strains, clinical isolates, Penassay broth, 18-24 h at 37° C.
reported.property: M.I.C.

Can you give me M.I.C. for all of these, one by one?
1. CCCCC/C=C\CCC(=O)N[C@H]1[C@H](Oc2c3cc4cc2Oc2ccc(cc2Cl)[C@@H](O[C@@H]2O[C@H](CO)[C@@H](O)[C@H](O)[C@H]2NC(C)=O)[C@@H]2NC(=O)[C@H](NC(=O)[C@@H]4NC(=O)[C@H]4NC(=O)[C@@H](Cc5ccc(c(Cl)c5)O3)NC(=O)[C@H](N)c3ccc(O)c(c3)Oc3cc(O)cc4c3)c3ccc(O)c(c3)-c3c(O[C@H]4O[C@H](CO)[C@@H](O)[C@H](O)[C@@H]4O)cc(O)cc3[C@@H](C(=O)O)NC2=O)O[C@H](CO)[C@@H](O)[C@@H]1O
2. CCCCCCCCCC(=O)N[C@H]1[C@H](Oc2c3cc4cc2Oc2ccc(cc2Cl)[C@@H](O[C@@H]2O[C@H](CO)[C@@H](O)[C@H](O)[C@H]2NC(C)=O)[C@@H]2NC(=O)[C@H](NC(=O)[C@@H]4NC(=O)[C@H]4NC(=O)[C@H](Cc5ccc(c(Cl)c5)O3)NC(=O)[C@H](N)c3ccc(O)c(c3)Oc3cc(O)cc4c3)c3ccc(O)c(c3)-c3c(O[C@H]4O[C@H](CO)[C@@H](O)[C@H](O)[C@@H]4O)cc(O)cc3[C@@H](C(=O)O)NC2=O)O[C@H](CO)[C@@H](O)[C@@H]1O
3. CC(=O)N[C@H]1[C@H](O[C@@H]2c3ccc(c(Cl)c3)Oc3cc4cc(c3O[C@@H]3O[C@H](CO)[C@@H](O)[C@H](O)[C@H]3NC(=O)CCCCCCCC(C)C)Oc3ccc(cc3Cl)C[C@H]3NC(=O)[C@H](N)c5ccc(O)c(c5)Oc5cc(O)cc(c5)[C@H](NC3=O)C(=O)N[C@H]4C(=O)N[C@H]3C(=O)N[C@@H]2C(=O)N[C@H](C(=O)O)c2cc(O)cc(O[C@H]4O[C@H](CO)[C@@H](O)[C@H](O)[C@@H]4O)c2-c2cc3ccc2O)O[C@H](CO)[C@@H](O)[C@@H]1O

Ans.
1: 0.8 to 1.6 µg/mL; 2: 0.4 to 0.8 µg/mL; 3: 0.2 to 0.8 µg/mL
